Origin of measurements: ChEMBL document CHEMBL1125620

Can you tell me IC50 for the items I'm about to list?
subject_of_test: 5-hydroxytryptamine receptor 1A (Rattus norvegicus, UniProt P19327)
Sequence (P19327 whole entry): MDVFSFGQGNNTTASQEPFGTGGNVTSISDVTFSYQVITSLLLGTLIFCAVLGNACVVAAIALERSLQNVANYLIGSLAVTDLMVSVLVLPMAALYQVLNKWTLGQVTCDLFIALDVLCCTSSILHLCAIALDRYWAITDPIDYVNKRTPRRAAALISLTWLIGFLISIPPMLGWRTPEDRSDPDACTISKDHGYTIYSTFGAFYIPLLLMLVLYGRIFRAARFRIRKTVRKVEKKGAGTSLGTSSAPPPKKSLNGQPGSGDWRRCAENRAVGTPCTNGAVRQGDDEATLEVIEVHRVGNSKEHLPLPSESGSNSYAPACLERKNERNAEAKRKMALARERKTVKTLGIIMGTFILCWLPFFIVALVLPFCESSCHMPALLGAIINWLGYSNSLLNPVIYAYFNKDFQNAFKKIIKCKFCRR
Numbers only, in µM.

Consider the following illustrative entries.
>  <structure>
Cc1cccc(N2CCN(CCCON3C(=O)CC4(CCCC4)CC3=O)CC2)c1C

>  <IC50 (µM)>
0.17

$$$$
>  <structure>
O=C1CC2(CCCC2)CC(=O)N1OCCCN1CCN(c2nc3ccccc3s2)CC1

>  <IC50 (µM)>
2.2

$$$$
>  <structure>
COc1ccccc1N1CCN(CCCON2C(=O)c3ccccc3C2=O)CC1

>  <IC50 (µM)>
6.9

$$$$

Answer for every listed entry: what is its IC50? The entries follow.
1. COc1ccccc1N1CCN(CCCON2C(=O)CC3(CCCC3)CC2=O)CC1
2. Cc1cccc(N2CCN(CCCON3C(=O)CC4(CCCC4)CC3=O)CC2)c1

Resp:
[0.11, 0.09]

List IC50 for every entry below, keeping the order given.
1. O=C1CC2(CCCC2)CC(=O)N1OCCCN1CCN(c2ccccc2Cl)CC1
2. COc1ccccc1N1CCN(CCON2C(=O)CC3(CCCC3)CC2=O)CC1

Resp:
1: 0.22; 2: 0.37

====

subject_of_test: D(1A) dopamine receptor (Rattus norvegicus, UniProt P18901)
Sequence (P18901 whole entry): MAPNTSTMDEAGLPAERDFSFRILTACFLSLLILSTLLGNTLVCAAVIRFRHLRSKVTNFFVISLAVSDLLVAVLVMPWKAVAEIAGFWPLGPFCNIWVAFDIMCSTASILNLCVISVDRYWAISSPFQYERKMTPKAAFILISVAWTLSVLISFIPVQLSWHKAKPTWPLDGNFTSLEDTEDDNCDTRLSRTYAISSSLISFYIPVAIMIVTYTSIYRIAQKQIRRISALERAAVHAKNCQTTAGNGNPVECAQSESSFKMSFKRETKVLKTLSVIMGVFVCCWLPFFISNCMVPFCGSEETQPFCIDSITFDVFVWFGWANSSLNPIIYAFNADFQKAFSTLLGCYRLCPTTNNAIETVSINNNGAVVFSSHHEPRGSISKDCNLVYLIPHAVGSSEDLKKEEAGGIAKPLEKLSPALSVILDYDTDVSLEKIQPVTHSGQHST
protocol_details: compound was measured as affinity for dopamine receptor D1 labeled with [3H]-SCH- 23390 radioligand in striatum tissue
experimental_endpoint: IC50 (µM)
One number for each entry, in µM.

Req: Which IC50 reading was recorded for the molecule O=C1CC2(CCCC2)CC(=O)N1OCCCN1CCN(c2nsc3ccccc23)CC1 ?
Resp: 6.6

====

Would you mind telling me the reported pIC50 of each entry?
subject_of_test: UniProt:P61169
Sequence (P61169 whole entry): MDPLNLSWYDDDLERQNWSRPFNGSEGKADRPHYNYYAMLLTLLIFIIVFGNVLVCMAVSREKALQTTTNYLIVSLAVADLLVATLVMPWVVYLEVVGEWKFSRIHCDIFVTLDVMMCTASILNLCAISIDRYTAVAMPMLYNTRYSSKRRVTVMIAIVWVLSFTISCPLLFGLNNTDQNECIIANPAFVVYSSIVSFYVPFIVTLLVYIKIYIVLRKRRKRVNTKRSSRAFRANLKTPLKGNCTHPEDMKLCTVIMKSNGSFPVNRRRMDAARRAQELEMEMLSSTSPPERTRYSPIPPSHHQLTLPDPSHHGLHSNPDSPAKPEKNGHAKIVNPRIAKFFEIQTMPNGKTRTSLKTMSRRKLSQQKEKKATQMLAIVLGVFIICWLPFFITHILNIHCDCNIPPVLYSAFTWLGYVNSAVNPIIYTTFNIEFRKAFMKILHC
protocol_details: Compound was measured for affinity at Dopamine receptor D2 labeled with [3H]spiroperidol radioligand in striatum tissue
pIC50: −log10 of the molar value.

>  <structure>
COc1ccccc1N1CCN(CCCON2C(=O)c3ccccc3C2=O)CC1

>  <pIC50>
< 4.70

$$$$

Moving on to the next compound.
Req: Short answer please: pIC50, UniProt:P61169, entry O=C1c2ccccc2C(=O)N1OCCCN1CCN(c2cccc(C(F)(F)F)c2)CC1
Resp: < 4.70

====

Record form. Attribute: ED50. Fill in for each entry.
System: Rattus norvegicus
protocol_details: In vivo activity administered intraperitoneally was determined by pole climb avoidance in rat
Assay type: functional
cond: ip
Numbers only, in mg/kg.

>  <compound>
CN1CCN(C2=Nc3cc(Cl)ccc3Nc3ccccc32)CC1 [CLOZAPINE]

>  <subject_of_test>
Rattus norvegicus

>  <measured_value>
13.1

$$$$
>  <compound>
Cc1nc2n(c(=O)c1CCN1CCC(c3noc4cc(F)ccc34)CC1)CCCC2 [RISPERIDONE]

>  <subject_of_test>
Rattus norvegicus

>  <measured_value>
0.48

$$$$
>  <compound>
O=C1CC2(CCCC2)CC(=O)N1CCCCN1CCN(c2nsc3ccccc23)CC1 [TIOSPIRONE]

>  <subject_of_test>
Rattus norvegicus

>  <measured_value>
0.93

$$$$

Req: // ED50 lookup, key: O=C(CCCN1CCC(O)(c2ccc(Cl)cc2)CC1)c1ccc(F)cc1 [HALOPERIDOL]
Resp: 0.53
